Catalogue of variants with associated abundance fitness
B1: Protein piccolo, residues 1058 to 1114; numbered along this chain, Q9Y6V0 (parent)
chain: TCPLCKTELNIGSKDPPNFNTCTECKNQVCNLCGFNPTPHLTEIQEWLCLNCQTQRA

- Variants of: B1
- experiment: abundance fitness (aPCA) (normalised: wild type 0, dead -1); higher = more abundant; growth selection in yeast, the domain comes from the species named
- measurement_conditions: Homo sapiens
quantity_measured: abundance fitness

1. G12P | 0.027
2. L9T | -0.081
3. L48F | 0.09
4. T1P | -0.239
5. T42S | -0.011
6. H40M | 0.004
7. C30G | -0.584
8. C5W | -0.96
9. K6A | -0.097
10. N18P | -0.047
11. C22M | -0.74
12. T7W | -0.797
13. P17Q | -0.114
14. E43H | -0.671
15. L50W | -0.215
16. T23I | -0.187
17. P39S | 0.069
18. L4C | -0.043
19. T21V | 0.091
20. L48G | -0.355
21. L4D | 0.17
22. Q45F | -0.127
23. T42K | -0.056
24. I11A | -0.153
25. E43W | -0.09
26. G34Y | -0.15
27. I44D | -0.38
28. K26I | 0.006
29. C49H | -0.761
30. C22L | -0.675
31. N18M | -0.842
32. C52A | -0.85
33. G34D | -0.075
34. N10L | -0.204
35. I11E | 0.172
36. N18A | -0.199
37. K26T | 0.195
38. L50M | -0.565
39. G34E | -0.292
40. G12F | -0.203
41. E24A | -0.061
42. N20V | 0.07
43. L48W | -0.061
44. D15S | -0.051
45. Q45L | -0.093
46. E43N | -0.123
47. F35V | 0.108
48. W47S | -0.03
49. Q53G | -0.016
50. L32R | 0.175
51. E8M | -0.011
52. W47M | -0.06
53. W47F | -0.065
54. N18D | 0.008
55. H40P | 0.085
56. L50D | 0.208
57. G34M | -0.643
